- ASSAY_SYSTEM: KRAS G12C (Homo sapiens (Human), UniProt P01116, G12C)
- Sequence (P01116 other isoform, or with tags, fused parts or gaps G12C): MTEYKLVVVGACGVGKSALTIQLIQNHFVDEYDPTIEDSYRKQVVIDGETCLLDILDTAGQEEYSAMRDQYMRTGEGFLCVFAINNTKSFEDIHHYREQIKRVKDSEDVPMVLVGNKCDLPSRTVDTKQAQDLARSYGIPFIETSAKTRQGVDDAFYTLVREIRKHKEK
- MEASUREMENT_NOTES: Inhibitory activity on KRAS G12C nucleotide (GDP-GTP) exchange reaction (Bodipy FL GDP, SOS1, GppNHp)
- MEASUREMENT_PARAMETERS: preincubation at 25° C. for 4 hours; SOS1 100 nM, GppNHp 1 μM, reaction 30 minutes
ENDPOINT: IC50 (nM)
Report only the number, with the unit nM understood.

Inquiry: Param item = C=CC(=O)N1CC(NC(=O)c2c(Cl)nc(CNc3n[nH]c4cc(Cl)c(C(C)(C)C)cc34)n2[C@H]2CC[C@@H](OC)CC2)C1 ; retrieve measured IC50.
Reply text: 5
